Assay: Cytotoxicity against primary human […] keratinocytes assessed as inhibition of cell viability at 10 uM preincubated for 2 hrs followed by cytokine addition measured after 72 hrs by PrestoBlue staining based fluorescence assay relative to control
Design: species or system Keratinocyte
Details: read-out: Imax
Hi, to clarify the labels: Condition met covers inhibition at 72 h, 10 µM from 20% upward, Condition not met covers anything below 20%.

1. CC1=C2[C@H](/C=C(\C)C(=O)NCc3ccccc3)CC[C@@H](C)[C@H]2CC1 = Condition met
2. CC1=C2[C@H](/C=C(\C)C(=O)NCc3cccc(F)c3)CC[C@@H](C)[C@H]2CC1 = Condition met
3. COCCNC(=O)/C(C)=C/[C@@H]1CC[C@@H](C)[C@H]2CCC(C)=C12 = Condition not met
4. CC1=C2[C@H](/C=C(\C)C(=O)O)CC[C@@H](C)[C@H]2CC1 = Condition not met
5. CC1=C2[C@H](/C=C(\C)C(=O)NCCc3ccccc3)CC[C@@H](C)[C@H]2CC1 = Condition not met
6. CC1=C2[C@H](/C=C(\C)C(=O)NCCc3ccc(Br)cc3)CC[C@@H](C)[C@H]2CC1 = Condition met
7. CC1=C2[C@H](/C=C(\C)C(=O)NCc3ccccc3F)CC[C@@H](C)[C@H]2CC1 = Condition met
8. CC1=C2[C@H](/C=C(\C)C(=O)NCc3ccc(F)cc3)CC[C@@H](C)[C@H]2CC1 = Condition met
9. CC1=C2[C@H](/C=C(\C)C(=O)NCCc3ccc(F)cc3)CC[C@@H](C)[C@H]2CC1 = Condition not met
10. CC1=C2[C@H](/C=C(\C)C(=O)NCCC(C)C)CC[C@@H](C)[C@H]2CC1 = Condition not met
11. CC1=C2[C@H](/C=C(\C)C(=O)NCCN3CCOCC3)CC[C@@H](C)[C@H]2CC1 = Condition not met

// provenance: ChEMBL document CHEMBL4020800
